# system: VLA-4 (Homo sapiens, UniProt P05556+P13612)
# Sequence (P13612 34-1032): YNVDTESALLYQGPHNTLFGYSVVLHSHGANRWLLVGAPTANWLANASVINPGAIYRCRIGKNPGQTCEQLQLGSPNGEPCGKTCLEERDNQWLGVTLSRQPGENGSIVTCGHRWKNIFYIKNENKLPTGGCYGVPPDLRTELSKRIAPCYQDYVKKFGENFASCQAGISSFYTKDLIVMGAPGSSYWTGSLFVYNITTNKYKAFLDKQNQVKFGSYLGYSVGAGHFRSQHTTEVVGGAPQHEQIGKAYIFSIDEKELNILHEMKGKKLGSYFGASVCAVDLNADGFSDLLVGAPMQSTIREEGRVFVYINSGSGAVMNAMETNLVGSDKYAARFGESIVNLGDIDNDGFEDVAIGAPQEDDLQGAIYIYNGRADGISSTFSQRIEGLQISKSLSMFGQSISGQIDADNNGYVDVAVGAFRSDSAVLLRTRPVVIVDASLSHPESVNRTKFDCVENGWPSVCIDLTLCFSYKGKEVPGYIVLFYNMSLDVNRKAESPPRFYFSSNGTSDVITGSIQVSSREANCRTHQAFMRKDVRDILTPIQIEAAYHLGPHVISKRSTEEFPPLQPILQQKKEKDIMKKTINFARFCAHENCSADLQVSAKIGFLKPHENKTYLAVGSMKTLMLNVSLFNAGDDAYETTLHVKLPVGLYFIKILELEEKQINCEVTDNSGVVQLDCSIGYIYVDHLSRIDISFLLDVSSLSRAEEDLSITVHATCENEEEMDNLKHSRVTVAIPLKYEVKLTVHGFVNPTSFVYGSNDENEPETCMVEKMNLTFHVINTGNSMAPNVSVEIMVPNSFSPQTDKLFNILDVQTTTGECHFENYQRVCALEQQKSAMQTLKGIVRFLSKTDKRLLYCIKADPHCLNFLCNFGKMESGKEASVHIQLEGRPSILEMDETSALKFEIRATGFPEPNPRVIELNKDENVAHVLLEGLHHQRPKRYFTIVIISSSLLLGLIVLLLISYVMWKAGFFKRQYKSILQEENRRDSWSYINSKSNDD
# Sequence (P05556 21-798): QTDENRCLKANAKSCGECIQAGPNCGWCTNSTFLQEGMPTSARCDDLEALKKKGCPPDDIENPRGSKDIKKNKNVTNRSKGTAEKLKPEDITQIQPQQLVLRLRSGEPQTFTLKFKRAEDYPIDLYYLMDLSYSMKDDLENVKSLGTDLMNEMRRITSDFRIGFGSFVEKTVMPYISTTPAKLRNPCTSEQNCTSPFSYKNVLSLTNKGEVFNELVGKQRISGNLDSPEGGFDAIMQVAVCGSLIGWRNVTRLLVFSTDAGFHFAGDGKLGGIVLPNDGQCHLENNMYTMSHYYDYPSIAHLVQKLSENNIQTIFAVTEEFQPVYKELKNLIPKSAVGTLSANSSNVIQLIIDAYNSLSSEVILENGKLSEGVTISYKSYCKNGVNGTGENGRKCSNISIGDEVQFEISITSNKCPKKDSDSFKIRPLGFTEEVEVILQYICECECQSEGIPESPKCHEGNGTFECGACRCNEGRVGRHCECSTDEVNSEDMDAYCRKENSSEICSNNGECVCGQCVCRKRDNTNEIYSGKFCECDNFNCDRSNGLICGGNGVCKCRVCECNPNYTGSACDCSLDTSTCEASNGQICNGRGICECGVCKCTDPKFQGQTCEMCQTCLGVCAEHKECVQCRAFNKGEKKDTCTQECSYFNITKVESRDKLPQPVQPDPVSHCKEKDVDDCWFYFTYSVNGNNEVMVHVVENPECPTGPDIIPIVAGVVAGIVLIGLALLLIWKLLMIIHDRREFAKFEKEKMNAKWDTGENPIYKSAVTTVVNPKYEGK
# assaySummary: In vitro binding inhibition of 51Cr-labeled Jurkat cells to solid phase-bound CS-1 compound (SEQ ID NO:1)
# Format: cell-based
# Design: inflammatory cells that contain the VLA-4 receptor [Jurkat cells; host or cells: Jurkat (human T lymphoblastic line)
# runParameters: binding inhibition potency relative to standard compound of SEQ ID NO:3 = 1 (normalized IC50); about one-tenth or less assigned zero
Square brackets hold non-standard residues; d marks the D form. Peptide text beside a SMILES is read from it. * marks the point of attachment. NMeF = CN[C@@H](Cc1ccccc1)C(=O)O; Cha = N[C@@H](CC1CCCCC1)C(=O)O; NMeL = CN[C@@H](CC(C)C)C(=O)O; Tle = CC(C)(C)[C@H](N)C(=O)O; Morpholide = C1CN(*)CCO1; Piperidide = C1CCN(*)CC1; Pyrrolidide = C1CCN(*)C1; PhAc = O=C(Cc1ccccc1)*; Bz = O=C(c1ccccc1)*
Record label 1 whenever Relative Potency is at 40 or higher; record label 0 when lower.

Sample answers from the record:
[[record]]
compound = "NC(=O)[C@H]1CCCN1C(=O)[C@H](Cc1ccccc1)NC(=O)[C@H](CC(=O)O)NC(=O)[C@H](CC1CCCCC1)NC(=O)c1ccccc1 [896.31] (Bz-[Cha]DF[dP]-NH2)"
labelvalue = "label 0"

[[record]]
compound = "CC(C)C[C@H](NC(=O)Cc1ccccc1)C(=O)N[C@@H](CC(=O)O)C(=O)N[C@@H](Cc1ccccc1)C(=O)N1CCN(CCC(=O)O)CC1 [1190.03]"
labelvalue = "label 1"

[[record]]
compound = "CC(C)C[C@H](NC(=O)Cc1ccccc1)C(=O)N[C@@H](CC(=O)O)C(=O)N[C@H](C(=O)N1CCC[C@@H]1C(N)=O)C(C)(C)C [896.56] (PhAc-LD[Tle][dP]-NH2)"
labelvalue = "label 0"

[[record]]
compound = "CC(C)C[C@H](NC(=O)Cc1ccccc1)C(=O)N[C@@H](CC(=O)O)C(=O)N[C@@H](Cc1ccccc1)C(=O)N1CCS(=O)(=O)CC1 [1111.03]"
labelvalue = "label 1"

[[record]]
compound = "CC(C)C[C@H](NC(=O)/C=C/c1ccccc1)C(=O)N[C@@H](CC(=O)O)C(=O)N[C@H](C(=O)N1CCC[C@@H]1C(N)=O)C(C)C [896.41]"
labelvalue = "label 0"

[[record]]
compound = "CC(C)C[C@H](NC(=O)Cc1ccccc1)C(=O)N[C@@H](CC(=O)O)C(=O)N[C@@H](Cc1ccccc1)C(=O)N1CCCCC1 [951.14] (PhAc-Leu-Asp-Phe-Piperidide)"
labelvalue = "label 1"

[[record]]
compound = "NC(=O)[C@H]1CCCN1C(=O)[C@H](Cc1ccccc1)NC(=O)[C@H](CC(=O)O)NC(=O)[C@H](CC1CCCCC1)NC(=O)Cc1ccccc1 [1160.01] (PhAc-[Cha]DF[dP]-NH2)"
labelvalue = "label 1"

[[record]]
compound = "CC(C)C[C@H](NC(=O)c1ccccc1)C(=O)N[C@@H](CC(=O)O)C(=O)N[C@@H](Cc1ccccc1)C(=O)N1CCC[C@@H]1C(N)=O [896.28] (Bz-LDF[dP]-NH2)"
labelvalue = "label 1"

[[record]]
compound = "O=C(O)C[C@H](NC1CCN(C(=O)Cc2ccccc2)CC1)C(=O)N[C@@H](Cc1ccccc1)C(=O)N1CCCC1 [992.01]"
labelvalue = "label 0"

[[record]]
compound = "CC(C)C[C@H](NC(=O)Cc1ccccc1)C(=O)N[C@@H](CC(=O)O)C(=O)N(C)[C@@H](Cc1ccccc1)C(=O)N1CCC[C@@H]1C(N)=O [1190.05] (PhAc-LD[NMeF][dP]-NH2)"
labelvalue = "label 0"


Determine whether this compound has Relative Potency no lower than 40: CC(C)C[C@H](NC(=O)Cc1ccccc1)C(=O)N[C@@H](CC(=O)O)C(=O)N[C@@H](Cc1ccccc1)C(=O)N1CCCC1 [951.15] (PhAc-Leu-Asp-Phe-Pyrrolidide)
label 1

Determine whether this compound has Relative Potency no lower than 40: CC(C)C[C@@H](C(=O)N[C@@H](CC(=O)O)C(=O)N[C@@H](Cc1ccccc1)C(=O)N1CCC[C@@H]1C(N)=O)N(C)C(=O)Cc1ccccc1 [1190.07] (PhAc-[NMeL]DF[dP]-NH2)
label 1

Determine whether this compound has Relative Potency no lower than 40: CC(C)C[C@H](NC(=O)Cc1ccccc1)C(=O)N[C@@H](CC(=O)O)C(=O)NC1Cc2ccccc2NC1=O (some centres unmarked) [997.08]
label 0

Determine whether this compound has Relative Potency no lower than 40: CC(C)C[C@H](NC(=O)Cc1ccccc1)C(=O)N[C@@H](CC(=O)O)C(=O)NC1Cc2ccccc2N(CC(N)=O)C1=O (some centres unmarked) [997.11]
label 1

Determine whether this compound has Relative Potency no lower than 40: CC(C)C[C@H](NC(=O)Cc1ccccc1)C(=O)N[C@@H](CC(=O)O)C(=O)N[C@@H](CO)C(=O)N1CCC[C@@H]1C(N)=O [896.72] (PhAc-LDS[dP]-NH2)
label 0

Determine whether this compound has Relative Potency no lower than 40: CC(C)C[C@H](NC(=O)Cc1ccccc1)C(=O)N[C@@H](CC(=O)O)C(=O)N[C@@H](Cc1ccccc1)C(=O)N1CC[N+](C)(C)CC1 [1111.08]
label 1

Determine whether this compound has Relative Potency no lower than 40: CC(C)C[C@H](NC(=O)Cc1ccccc1)C(=O)N[C@@H](CC(=O)O)C(=O)N[C@@H](Cc1ccccc1)C(=O)N1CCOCC1 [1051.01] (PhAc-Leu-Asp-Phe-Morpholide)
label 1

Determine whether this compound has Relative Potency no lower than 40: CC(C)C[C@H](NC(=O)Cc1ccccc1)C(=O)N[C@@H](CC(=O)O)C(=O)NC1Cc2ccccc2N(CCN2CCOCC2)C1=O (some centres unmarked) [997.18]
label 0

Determine whether this compound has Relative Potency no lower than 40: CC(C)C[C@H](NC(=O)Cc1ccccc1)C(=O)N[C@@H](CC(=O)O)C(=O)NCC(=O)N1CCOCC1 [997.16] (PhAc-Leu-Asp-Gly-Morpholide)
label 0
